- Test system: MDA-MB-468 breast
- Method: NCI-60 one-dose screen, 48 h
- Experimental conditions: 10 µM unless noted
About 83,000 compounds went through this panel and 20% of them were active in at least one assay; those are over-represented in the sample as a whole. The source made the active and inactive calls. How the source made its calls: active means growth percent below 10; inactive means the rest.
Classes used: 1 = active, -1 = inactive

>  <Molecule>
Cc1ccc(CNc2ccc3nc(CCC4CCCCC4)[nH]c3c2)cc1

>  <Answer label>
1

$$$$
>  <Molecule>
CCSc1nc(Nc2ccc(S(=O)(=O)Nc3ccon3)cc2)c(C#N)c(-c2cccc(Br)c2)n1

>  <Answer label>
-1

$$$$
>  <Molecule>
Cc1ccc(-c2nc3nc(-c4ccccc4)nc(N4CCNCC4)c3o2)cc1

>  <Answer label>
1

$$$$
>  <Molecule>
Nc1cccc2c1CN(C1CCC(=O)NC1=O)C2=O (centres undefined)

>  <Answer label>
-1

$$$$
